Test system: RARa:RXR (NR concentration 270 nM, RXRa partner concentration 90 nM)
Assay: PBM binding z-score (relative to random genomic background probes); higher = stronger binding; sequences stand for … in GC…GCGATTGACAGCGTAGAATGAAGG
outcome_measure: PBM binding z-score
Keep the answer to the number alone.

Exam item: Given "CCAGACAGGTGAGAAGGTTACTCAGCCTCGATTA" , state its recorded PBM binding z-score.
Marked response: 1.23

Exam item: // next record "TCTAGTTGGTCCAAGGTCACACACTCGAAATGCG"
Marked response: 4.31

Exam item: Try "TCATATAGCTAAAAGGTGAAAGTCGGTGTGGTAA" next.
Marked response: 1.37

Exam item: Now try "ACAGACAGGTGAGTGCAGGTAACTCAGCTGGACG" .
Marked response: -0.416

Exam item: Also check "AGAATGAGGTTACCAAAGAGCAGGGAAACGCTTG"
Marked response: 1.71

Exam item: Try "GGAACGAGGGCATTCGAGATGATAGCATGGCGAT" next.
Marked response: 0.232

====

Tested on: LXRb:RXRa (NR concentration 270 nM, RXRa partner concentration 90 nM)
Assay: PBM binding z-score (relative to random genomic background probes); higher = stronger binding; sequences stand for … in GC…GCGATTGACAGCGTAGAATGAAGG
outcome_measure: PBM binding z-score

Exam item: So what does the record say about PBM binding z-score for "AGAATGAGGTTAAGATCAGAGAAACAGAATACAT" ?
Marked response: 1.9

Exam item: Also "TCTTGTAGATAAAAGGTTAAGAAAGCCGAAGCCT" ?
Marked response: 1.85

Exam item: // next record "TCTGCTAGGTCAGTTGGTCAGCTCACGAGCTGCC"
Marked response: 0.62

Exam item: What would you report for "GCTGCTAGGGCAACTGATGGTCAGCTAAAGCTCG" ?
Marked response: -0.846

Exam item: // query: "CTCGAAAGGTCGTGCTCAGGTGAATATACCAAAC"
Marked response: 3.82

Exam item: Same lookup for "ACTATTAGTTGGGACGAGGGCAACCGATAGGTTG" , please.
Marked response: 0.0169

Exam item: For "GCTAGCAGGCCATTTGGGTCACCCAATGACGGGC" then?
Marked response: 0.0231

Exam item: Next: "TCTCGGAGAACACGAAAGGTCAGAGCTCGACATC"
Marked response: 3

Exam item: Thanks! And "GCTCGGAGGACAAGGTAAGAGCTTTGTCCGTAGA" ?
Marked response: -0.8

Exam item: Then "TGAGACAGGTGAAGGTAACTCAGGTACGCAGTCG" ?
Marked response: 0.233

Exam item: Would you kindly repeat that for "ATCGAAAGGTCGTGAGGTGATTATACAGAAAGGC" ?
Marked response: 3.36

Exam item: Lookup "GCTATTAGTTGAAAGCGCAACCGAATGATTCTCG"
Marked response: -0.318

Exam item: Now the sequence "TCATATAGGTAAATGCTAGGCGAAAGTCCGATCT"
Marked response: 0.58

Exam item: Can you check "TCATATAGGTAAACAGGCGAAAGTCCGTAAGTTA" next?
Marked response: 0.816

Exam item: Entry "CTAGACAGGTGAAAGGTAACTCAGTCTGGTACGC" please
Marked response: 0.732

Exam item: Field entry: "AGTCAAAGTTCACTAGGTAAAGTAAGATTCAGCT"
Marked response: 2.95

Exam item: Note, next up: "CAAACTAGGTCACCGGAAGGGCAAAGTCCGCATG"
Marked response: 2.88

Exam item: Please give the result for "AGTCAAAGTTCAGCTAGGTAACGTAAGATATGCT" too.
Marked response: 1.91

Exam item: // same read-out, input: "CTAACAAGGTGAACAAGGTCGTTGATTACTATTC"
Marked response: 1.71

Exam item: Next up: "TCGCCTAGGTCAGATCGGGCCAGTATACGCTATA"
Marked response: 0.65

Exam item: Same lookup for "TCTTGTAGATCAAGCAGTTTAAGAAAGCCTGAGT" , please.
Marked response: 0.14

Exam item: Repeat for the following sequence: "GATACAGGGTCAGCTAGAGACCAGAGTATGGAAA"
Marked response: 2.36

Exam item: Next: "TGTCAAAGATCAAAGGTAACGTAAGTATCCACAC"
Marked response: 1.32

Exam item: Note, next up: "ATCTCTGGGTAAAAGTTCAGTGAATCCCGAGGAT"
Marked response: 1.04

Exam item: Subsequent entry: "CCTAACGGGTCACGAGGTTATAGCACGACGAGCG"
Marked response: 3.54

Exam item: And for "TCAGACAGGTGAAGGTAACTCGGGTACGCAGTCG" ?
Marked response: 1.44

====

Tested on: THRa homodimer (NR concentration 90 nM)
Test: PBM binding z-score (relative to random genomic background probes); higher = stronger binding; sequences stand for … in GC…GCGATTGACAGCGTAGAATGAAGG
Exercise: state measured PBM binding z-score for each of the sequences provided.

Exam item: Reported PBM binding z-score for THRa homodimer (NR concentration 90 nM), given "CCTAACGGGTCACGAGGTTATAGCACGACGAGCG" ?
Marked response: 0.791

Exam item: Next entry: "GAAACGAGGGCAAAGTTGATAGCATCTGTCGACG"
Marked response: -0.284

Exam item: Repeat for the following sequence: "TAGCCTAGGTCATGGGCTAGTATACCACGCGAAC"
Marked response: 0.81

Exam item: Same read-out for "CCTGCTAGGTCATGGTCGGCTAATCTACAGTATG" ?
Marked response: 1.29

Exam item: Another sequence to look at: "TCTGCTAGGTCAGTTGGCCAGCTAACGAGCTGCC"
Marked response: -0.473

Exam item: Follow-up item: "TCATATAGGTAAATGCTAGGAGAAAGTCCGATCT"
Marked response: -0.197

Exam item: What would you report for "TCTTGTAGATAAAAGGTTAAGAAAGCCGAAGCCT" ?
Marked response: -0.62

Exam item: Also "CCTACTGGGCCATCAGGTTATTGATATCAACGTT" ?
Marked response: 0.712

Exam item: Another: "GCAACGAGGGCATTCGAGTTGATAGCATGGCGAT"
Marked response: -0.513

Exam item: Now give it for "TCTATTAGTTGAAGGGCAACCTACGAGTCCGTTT" too.
Marked response: -0.0206

Exam item: And the next one, "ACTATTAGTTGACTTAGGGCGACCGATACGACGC" ?
Marked response: 0.262

Exam item: Now try "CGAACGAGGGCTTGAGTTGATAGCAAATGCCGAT" .
Marked response: -0.618

Exam item: Now try "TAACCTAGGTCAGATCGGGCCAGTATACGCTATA" .
Marked response: 0.384

Exam item: Try this sequence next: "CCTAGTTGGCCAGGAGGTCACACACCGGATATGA"
Marked response: 2.38

Exam item: Can you handle "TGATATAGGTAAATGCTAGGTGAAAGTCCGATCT" next?
Marked response: 0.59

Exam item: Similarly, "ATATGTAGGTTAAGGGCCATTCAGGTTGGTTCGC" ?
Marked response: 0.32

Exam item: Moving on to the next sequence: "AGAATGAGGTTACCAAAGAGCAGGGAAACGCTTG"
Marked response: 0.573

Exam item: Now the same for "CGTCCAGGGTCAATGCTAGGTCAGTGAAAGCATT"
Marked response: 1.79

Exam item: Let us now turn to "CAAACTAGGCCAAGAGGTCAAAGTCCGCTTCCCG"
Marked response: 1.81

Exam item: Quick one: "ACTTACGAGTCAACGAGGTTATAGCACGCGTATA"
Marked response: 0.474

Exam item: For "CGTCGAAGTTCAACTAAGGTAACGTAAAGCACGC" then?
Marked response: 2.11

Exam item: Now consider "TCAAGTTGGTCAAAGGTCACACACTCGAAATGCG" and answer again.
Marked response: 1.86

Exam item: Would you kindly repeat that for "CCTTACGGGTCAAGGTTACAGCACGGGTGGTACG" ?
Marked response: 1.09

Exam item: Okay, and "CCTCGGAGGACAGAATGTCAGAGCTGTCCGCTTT" ?
Marked response: -0.615

Exam item: And for "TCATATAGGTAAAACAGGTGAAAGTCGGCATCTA" ?
Marked response: 0.0853

Exam item: Similarly, "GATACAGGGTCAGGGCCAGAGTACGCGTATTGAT" ?
Marked response: 0.838

====

System: PPARg:RXRa IVT, anti-PPARg (NR concentration 270 nM, RXRa partner concentration 90 nM)
Test: PBM binding z-score (relative to random genomic background probes); higher = stronger binding; sequences stand for … in GC…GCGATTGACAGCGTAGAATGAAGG
Class label 1: PBM binding z-score at least 4. Class label 0: PBM binding z-score below 4.

Exam item: Is PBM binding z-score at least 4? Consider "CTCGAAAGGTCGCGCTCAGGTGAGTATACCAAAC"
Marked response: label 0

Exam item: Same question, "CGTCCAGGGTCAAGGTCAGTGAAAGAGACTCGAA" this time
Marked response: label 1

Exam item: Param item: "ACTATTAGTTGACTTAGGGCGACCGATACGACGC"
Marked response: label 0

Exam item: "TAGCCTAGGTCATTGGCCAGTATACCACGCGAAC" ?
Marked response: label 0

Exam item: Param item: "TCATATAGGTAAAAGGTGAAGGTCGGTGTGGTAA"
Marked response: label 1

Exam item: Ok, now "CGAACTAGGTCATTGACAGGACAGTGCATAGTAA"
Marked response: label 1

Exam item: For "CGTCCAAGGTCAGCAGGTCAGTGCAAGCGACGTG" then?
Marked response: label 0

Exam item: Can you check "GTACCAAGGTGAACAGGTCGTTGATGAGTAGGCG" next?
Marked response: label 0

Exam item: And the next one, "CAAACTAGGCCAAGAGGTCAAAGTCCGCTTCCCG" ?
Marked response: label 1

Exam item: Try this sequence next: "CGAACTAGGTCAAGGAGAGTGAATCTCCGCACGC"
Marked response: label 1

Exam item: Query "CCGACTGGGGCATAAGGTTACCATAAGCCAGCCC" next
Marked response: label 0

Exam item: Entry to check: "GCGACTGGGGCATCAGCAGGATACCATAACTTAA"
Marked response: label 0

Exam item: Please give the result for "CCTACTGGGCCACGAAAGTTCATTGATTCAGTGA" too.
Marked response: label 1

Exam item: Likewise for "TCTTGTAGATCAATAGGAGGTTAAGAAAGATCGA" ?
Marked response: label 0

Exam item: Same for "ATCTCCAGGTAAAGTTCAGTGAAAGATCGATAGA"
Marked response: label 0

Exam item: Thanks! And "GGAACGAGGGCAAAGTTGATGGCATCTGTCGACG" ?
Marked response: label 1

Exam item: Same for "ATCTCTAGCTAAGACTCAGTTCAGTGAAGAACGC"
Marked response: label 0

Exam item: And for "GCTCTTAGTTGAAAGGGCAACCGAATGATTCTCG" ?
Marked response: label 0

Exam item: Ok, now "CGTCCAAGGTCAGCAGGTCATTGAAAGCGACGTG"
Marked response: label 0

Exam item: Lookup "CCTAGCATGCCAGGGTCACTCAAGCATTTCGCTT"
Marked response: label 0

Exam item: Then this sequence: "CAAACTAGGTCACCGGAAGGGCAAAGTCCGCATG"
Marked response: label 1

Exam item: How about this sequence: "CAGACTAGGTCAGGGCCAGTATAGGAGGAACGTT"
Marked response: label 1

Exam item: Quick one: "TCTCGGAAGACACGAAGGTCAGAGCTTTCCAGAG"
Marked response: label 0

Exam item: And for "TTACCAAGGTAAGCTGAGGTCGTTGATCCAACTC" ?
Marked response: label 0

Exam item: Follow-up entry: "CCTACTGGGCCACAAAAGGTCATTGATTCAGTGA"
Marked response: label 1
